- target: CLas BamA protein (Candidatus Liberibacter asiaticus, UniProt Q32TE9)
- Assay type: binding
- particulars: BLI, pH 6.5 Tris buffer; mean ± SD; read-out: KD, affinity constant
measurement_label: Kd (nM)

| residue_string | unit_of_measure | reading |
| --- | --- | --- |
| QSFYYVSQKKKWFPVKF [ACT56973.1_80-96] | nM | 248 |
| DLHPQFQNLLKKSQN [ACT56869.1_241-255] | nM | 270 |
